Test system: Inhibin beta A chain (activin A)
Experiment: INHBA (activin A) binders on microarrays, primary screen, biochemical, small-molecule microarray, 635 nm fluorescence scan (AID 1107);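 also: mouse activin A protein probed at 4.33 µg/mL on printed slides; score merges bound-protein fluorescence near 667 nm with spot signal-to-noise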
Details: small-molecule microarray binding, higher = more signal
What composite z-score was measured for each of the following?

Examples from the recorded data:
Which value of composite z-score has been reported for CCCNC(=O)OC[C@H]1O[C@H](CCON=C(C)CCC(=O)OC[C@H]2O[C@H](C#Cc3ccccc3)C=C[C@@H]2Oc2ccc(C)cc2)C=C[C@@H]1Oc1ccc(OC)cc1 in the records?
0.711

Also CC(C)=CCCC(C)=CCON=C1C[C@@H](O)[C@@H](O)[C@@H]2[C@@H]3C(=O)N([C@@H](C)c4ccccc4)C(=O)[C@@H]3CC[C@H]12 ?
1.15

Let us examine a further case.
Which value of composite z-score has been reported for Cc1ccc(S(=O)(=O)N[C@H]2COC(=O)[C@@H](C)COC(=O)[C@H](C)NC(=O)CC=C[C@H]2C)cc1 in the records?
-0.108
